Test: Stability of compounds in human liver microsomes
Format: in vitro ADME
Conditions: scaled from HLM half-life (Obach method), human
assay_endpoint: HLM Predicted Systemic Clearance (mL/min/kg)
Express the result in mL/min/kg but write the number alone.

The following molecules have reported results that may help.
input_smiles: COc1cc2c(cc1OC(C)C)CCN1C[C@@H](CC(C)(C)C)[C@H](O)C[C@H]21
measurement_units: mL/min/kg
reported: 10.35
--
input_smiles: COc1cc2c(cc1OCC1COC1)CCN1C[C@@H](CC(C)(C)C)[C@H](O)C[C@H]21
measurement_units: mL/min/kg
reported: 6.49
--
input_smiles: COc1cc2c(cc1OCC1(F)COC1)CCN1C[C@@H](CC(C)(C)C)[C@H](O)C[C@H]21
measurement_units: mL/min/kg
reported: 8.3
--
input_smiles: COc1cc2c(cc1OCCN1CCC(F)(F)C1)CCN1C[C@@H](CC(C)(C)C)[C@H](O)C[C@H]21
measurement_units: mL/min/kg
reported: 13.15

Incoming: So what's the measured HLM Predicted Systemic Clearance for this one? COc1cc2c(cc1OCc1cccc(C#N)c1)CCN1C[C@@H](CC(C)(C)C)[C@H](O)C[C@H]21
Outgoing: 10.44

====

Form field: Predicted Max. Bioavailability (% F) (one value per entry).
Experiment: Stability of compounds in human liver microsomes
Assay type: in vitro ADME
Settings: predicted from HLM data, human
Express the result in % F but write the number alone.

Here's what some known entries look like.
compound: COc1cc2c(cc1O[C@@H]1CCOC1)CCN1C[C@@H](CC(C)(C)C)[C@H](O)C[C@H]21
Predicted Max. Bioavailability (% F): 70
--
compound: COc1cc2c(cc1OCC1(CC#N)CC1)CCN1C[C@@H](CC(C)(C)C)[C@H](O)C[C@H]21
Predicted Max. Bioavailability (% F): 31
--
compound: CC[C@@H](O)COc1cc2c(cc1OC)[C@H]1C[C@@H](O)[C@H](CC(C)(C)C)CN1CC2
Predicted Max. Bioavailability (% F): 77
--
compound: CCOc1cc2c(cc1OC)[C@H]1C[C@@H](O)[C@H](CC(C)(C)C)CN1CC2
Predicted Max. Bioavailability (% F): 38
--
compound: COc1cc2c(cc1OCCC1(C#N)CC1)CCN1C[C@@H](CC(C)(C)C)[C@H](O)C[C@H]21
Predicted Max. Bioavailability (% F): 67

Then there is this compound:
Incoming: I am curious: what Predicted Max. Bioavailability (% F) value has been reported for COc1cc2c(cc1OC[C@H](C)OC)CCN1C[C@@H](CC(C)(C)C)[C@H](O)C[C@H]21 ?
Outgoing: 44

====

Assay: Stability of compounds in human liver microsomes
Format: in vitro ADME
Settings: both sexes, liver microsomes, pH 7.4; calculated from HLM half-life, human; read-out: HLM Scaled Intrinsic Clearance
assay_endpoint: CLint scaled at 0.5 μM

Illustrative cases are given below, each with its answer.
compound: COc1cc2c(cc1OCC(F)(F)F)CCN1C[C@@H](CC(C)(C)C)[C@@H](O)C[C@H]21 [Compound 4-16]
CLint scaled at 0.5 μM: ≤ 2.97 mL/min/kg

compound: COc1cc2c(cc1OCC1(CC#N)CC1)CCN1C[C@@H](CC(C)(C)C)[C@H](O)C[C@H]21 [Compound 4-46]
CLint scaled at 0.5 μM: 45.1 mL/min/kg

compound: COc1cc2c(cc1OCC(F)F)CCN1C[C@@H](CC(C)(C)C)[C@@H](O)C[C@H]21 [Compound 4-10]
CLint scaled at 0.5 μM: 3.65 mL/min/kg

compound: COc1cc2c(cc1OCCN1CCC(F)(F)C1)CCN1C[C@@H](CC(C)(C)C)[C@H](O)C[C@H]21 [Compound 4-71]
CLint scaled at 0.5 μM: 38.4 mL/min/kg

compound: COc1cc2c(cc1OCc1ccc(F)cc1)CCN1C[C@@H](CC(C)(C)C)[C@H](O)C[C@H]21 [Compound 4-63]
CLint scaled at 0.5 μM: 42.3 mL/min/kg

Incoming: Look at this compound and give its reported CLint scaled at 0.5 μM. COc1cc2c(cc1OC1CCC1)CCN1C[C@@H](CC(C)(C)C)[C@H](O)C[C@H]21 [Compound 4-32]
Outgoing: 66.5 mL/min/kg

Incoming: I would be grateful if you could share the reported CLint scaled at 0.5 μM for COc1cc2c(cc1OCc1ncc(C)o1)CCN1C[C@@H](CC(C)(C)C)[C@H](O)C[C@H]21 [Compound 4-36] .
Outgoing: 13.4 mL/min/kg

====

Assay: Stability of compounds in human liver microsomes
Format: in vitro ADME
Settings: both sexes, pH 7.4; 0.5 μM compound, 0.5 mg/mL human liver microsomes, 37° C.; maxed at 420 minutes; read-out: HLM Elimination half-life (t1/2, min)
assay_endpoint: half-life at 0.5 μM (min)
# output: bare number, implied unit min

input_smiles: COc1cc2c(cc1OCC1CC1)CCN1C[C@@H](CC(C)(C)C)[C@H](O)C[C@H]21
reported: 44
--
input_smiles: COc1cc2c(cc1OC)[C@H]1C[C@H](O)[C@H](CC(C)(C)C)CN1CC2
reported: 38
--
input_smiles: CC[C@@H]1C[C@H]1COc1cc2c(cc1OC)[C@H]1C[C@@H](O)[C@H](CC(C)(C)C)CN1CC2
reported: 8

Incoming: I am curious: what half-life at 0.5 μM value has been reported for COc1cc2c(cc1OCC1(F)CCC1)CCN1C[C@@H](CC(C)(C)C)[C@H](O)C[C@H]21 ?
Outgoing: 30

====

Assay: Stability of compounds in human liver microsomes
Type: in vitro ADME
Conditions: scaled from HLM half-life (Obach method), human
Procedure: A test compound (0.5 μM) was incubated with pooled mixed gender liver microsomes from humans (0.5 mg/mL total protein) at 37° C. in the presence of an NADPH-generating system containing 50 mM, pH 7.4 potassium phosphate buffer, 3 mM magnesium chloride, 1 mM EDTA, 1 mM NADP, 5 mM glusose-6-phosphate, and 1 Unit/mL glucose-6-phosphate dehydrogenase. […] Aliquots of the resulting supernatant fractions were analyzed by LC-MS/MS monitoring for depletion of parent compound. […]
The threshold is 10 mL/min/kg. Values of HLM Predicted Systemic Clearance beneath it are tagged YES; values meeting or exceeding it are tagged NO.

Below are worked cases with known answers.
compound: C=C(C)COc1cc2c(cc1OC)[C@H]1C[C@@H](O)[C@H](CC(C)(C)C)CN1CC2
classification: NO
//
compound: COc1cc2c(cc1OCC1CC1(F)F)CCN1C[C@@H](CC(C)(C)C)[C@H](O)C[C@H]21 (stereo partly shown)
classification: YES
//
compound: COc1cc2c(cc1OCC(C)(F)F)CCN1C[C@@H](CC(C)(C)C)[C@H](O)C[C@H]21
classification: YES
//
compound: COc1cc2c(cc1OCc1ccc(F)cc1)CCN1C[C@@H](CC(C)(C)C)[C@H](O)C[C@H]21
classification: NO
//
compound: COc1cc2c(cc1OCC(O)CC(F)(F)F)CCN1C[C@@H](CC(C)(C)C)[C@H](O)C[C@H]21 (stereo partly shown)
classification: YES

Could you now consider this next compound?
Incoming: Lab note: HLM Predicted Systemic Clearance threshold 10 mL/min/kg. Does this compound come in strictly under it? COc1cc2c(cc1OC)[C@H]1C[C@H](O)[C@H](CC(C)(C)C)CN1CC2
Outgoing: NO

====

Assay: Stability of compounds in human liver microsomes
Type: in vitro ADME
Details: predicted from HLM data, human
assay_endpoint: Predicted Max. Bioavailability (% F)

input_smiles: COc1cc2c(cc1OCCOC1(C#N)CCC1)CCN1C[C@@H](CC(C)(C)C)[C@H](O)C[C@H]21
assay_endpoint: Predicted Max. Bioavailability (% F)
reported: 25 % F

input_smiles: COc1cc2c(cc1OC1CC1)CCN1C[C@@H](CC(C)(C)C)[C@H](O)C[C@H]21
assay_endpoint: Predicted Max. Bioavailability (% F)
reported: ≥87 % F

input_smiles: COc1cc2c(cc1OCc1ccc(C#N)o1)CCN1C[C@@H](CC(C)(C)C)[C@H](O)C[C@H]21
assay_endpoint: Predicted Max. Bioavailability (% F)
reported: 45 % F

Moving on to the next compound.
Incoming: # input compound: COc1cc2c(cc1OC[C@@H](O)C(F)(F)F)CCN1C[C@@H](CC(C)(C)C)[C@H](O)C[C@H]21 ; wanted: its Predicted Max. Bioavailability (% F)
Outgoing: ≥87 % F

====

HLM Predicted Systemic Clearance values by entry
Test: Stability of compounds in human liver microsomes
Format: in vitro ADME
Settings: scaled from HLM half-life (Obach method), human
Please reply with the bare figure in mL/min/kg and do not write the unit itself.

Look over these answered cases.
compound: COc1cc2c(cc1OCCc1ccc(F)cc1)CCN1C[C@@H](CC(C)(C)C)[C@H](O)C[C@H]21 [Compound 4-117]
reported: 16.98
--
compound: COc1cc2c(cc1OCC(O)COCC(F)(F)F)CCN1C[C@@H](CC(C)(C)C)[C@H](O)C[C@H]21 (stereo partly shown) [Compound 4-79]
reported: 4.54
--
compound: COc1cc2c(cc1OCCC(F)(F)F)CCN1C[C@@H](CC(C)(C)C)[C@H](O)C[C@H]21 [Compound 4-15]
reported: 3.37

# ---- query compound ----
Incoming: Requested read-out: HLM Predicted Systemic Clearance. Entry: COc1cc2c(cc1OCC(F)(F)Cl)CCN1C[C@@H](CC(C)(C)C)[C@H](O)C[C@H]21 [Compound 4-65]
Outgoing: 4.31
